- Measurement target: COX-1 (Homo sapiens, UniProt P23219)
- Construct: endogenous in cells; 100,000 x g microsomal fraction
- Sequence (P23219 24-599): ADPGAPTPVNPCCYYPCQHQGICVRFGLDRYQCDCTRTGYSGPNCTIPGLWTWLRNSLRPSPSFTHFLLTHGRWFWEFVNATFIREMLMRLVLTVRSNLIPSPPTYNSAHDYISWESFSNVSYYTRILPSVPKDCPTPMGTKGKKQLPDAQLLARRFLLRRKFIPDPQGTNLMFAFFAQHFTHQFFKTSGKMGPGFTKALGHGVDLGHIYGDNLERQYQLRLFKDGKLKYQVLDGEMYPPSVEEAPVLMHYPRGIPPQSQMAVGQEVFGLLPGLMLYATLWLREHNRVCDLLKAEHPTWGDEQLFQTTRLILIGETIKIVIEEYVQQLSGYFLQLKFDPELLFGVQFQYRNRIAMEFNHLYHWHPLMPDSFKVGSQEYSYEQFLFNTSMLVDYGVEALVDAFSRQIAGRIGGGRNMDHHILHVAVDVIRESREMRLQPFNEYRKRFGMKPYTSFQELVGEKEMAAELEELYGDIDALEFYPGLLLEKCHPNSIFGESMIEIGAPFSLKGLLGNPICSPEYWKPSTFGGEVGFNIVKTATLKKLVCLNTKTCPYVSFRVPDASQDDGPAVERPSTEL
- Method description: Assay of COX-1 activity from U937 cell microsomes
- Measurement context: U937 cells, PGE2 synthesis in presence of AA
- Protocol: Compounds are tested as inhibitors of cyclooxygenase activity in whole cell cyclooxygenase assays. […] Cells used for these assays are human osteosarcoma 143 cells (which specifically express COX-2) and human U-937 cells (which specifically express COX-1). […] Samples are neutralized with 25 µl of 1 N NaOH prior to quantitation of PGE2 content by radioimmunoassay (Dupont-NEN or Amersham assay kits). […]
Readout: IC50

Just so you know, measured IC50 for CS(=O)(=O)c1ccc(-c2cccnc2-c2ccccc2)cc1 [Aa, reference compound] came out at > 10 µM
